Target: human GPR39 receptor (Homo sapiens, UniProt O43194)
Construct: PC3 Cells, Expressing the Endogenous Human GPR39 Receptor; endogenous in cells
Sequence (O43194 whole entry): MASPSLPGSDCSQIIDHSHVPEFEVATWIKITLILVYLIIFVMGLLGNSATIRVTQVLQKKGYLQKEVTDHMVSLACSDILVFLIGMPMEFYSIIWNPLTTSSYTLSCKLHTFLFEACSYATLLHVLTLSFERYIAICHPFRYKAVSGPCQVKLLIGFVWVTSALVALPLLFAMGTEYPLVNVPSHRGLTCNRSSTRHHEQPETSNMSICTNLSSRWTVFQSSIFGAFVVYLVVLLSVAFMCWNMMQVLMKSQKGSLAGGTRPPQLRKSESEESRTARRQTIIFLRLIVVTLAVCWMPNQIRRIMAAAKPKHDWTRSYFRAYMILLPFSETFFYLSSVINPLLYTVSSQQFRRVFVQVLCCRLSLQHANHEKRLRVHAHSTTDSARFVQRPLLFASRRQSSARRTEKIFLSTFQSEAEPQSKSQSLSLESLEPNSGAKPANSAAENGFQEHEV
Experiment: Measurement of intracellular calcium response in PC3 cells (FLIPR), antagonism of the C3 agonist response
Conditions: functional pKi (modified Cheng-Prusoff), inhibition of the C3 (TC-G 1008) response at EC90, 30 μM ZnCl2, read-out: fpKi activity
Some compounds, each annotated with its measured Ki.

Q: Ki lookup needed for Cc1nnc(-c2ccc(C(=O)N3CCN(C)CC3c3ccccc3)c(N3CCC(C(F)(F)F)C3)c2)[nH]1 (single isomer, unassigned) [Example 177b] , thanks.
A: 0.316 to 1 µM
